Target: human S1P1 (Homo sapiens (Human), UniProt P21453)
Sequence (P21453 whole entry): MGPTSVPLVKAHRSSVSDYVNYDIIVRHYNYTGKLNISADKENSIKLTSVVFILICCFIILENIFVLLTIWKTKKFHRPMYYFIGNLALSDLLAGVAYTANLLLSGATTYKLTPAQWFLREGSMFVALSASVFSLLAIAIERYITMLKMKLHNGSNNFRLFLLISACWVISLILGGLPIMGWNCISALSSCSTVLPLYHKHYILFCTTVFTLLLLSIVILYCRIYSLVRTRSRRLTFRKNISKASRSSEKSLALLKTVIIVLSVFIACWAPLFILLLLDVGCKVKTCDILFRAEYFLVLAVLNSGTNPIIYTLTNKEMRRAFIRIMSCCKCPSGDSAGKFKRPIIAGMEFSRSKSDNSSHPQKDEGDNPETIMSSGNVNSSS
Experiment: S1P1 binding assay (33P-S1P radioligand competition, CHO cell membranes)
Conditions: phosphate examples; read-out: S1P1 Binding
pIC50: −log10 of the molar value.
The molecules listed here are annotated with their pIC50.

molecule	pIC50
C/C=C\CCC[C@H]1CCc2cc([C@H]3CC[C@](N)(COP(=O)(O)O)C3)ccc2C1	7.00 to 8.00
N[C@]1(COP(=O)(O)O)CCC(c2ccc3c(c2)CN(CCCc2ccccc2)C3=O)C1 (some centres unmarked)	5.00 to 6.00
CCCCC1CCc2cc([C@H]3CC[C@](N)(COP(=O)(O)O)C3)ccc2C1=O (some centres unmarked)	> 8.00
Cc1ccccc1OC[C@@H]1CCc2cc([C@H]3CC[C@](N)(COP(=O)(O)O)C3)ccc2C1	7.00 to 8.00
CCCCCSC[C@H]1CCc2cc([C@H]3CC[C@](N)(COP(=O)(O)O)C3)ccc2C1	> 8.00
N[C@]1(COP(=O)(O)O)CC[C@H](c2ccc3c(c2)CC[C@@H](COCc2ccc(C(F)(F)F)s2)C3)C1	> 8.00
CCCCCCC1CCc2nc([C@@H]3CC[C@@](N)(COP(=O)(O)O)C3)ccc2C1 (some centres unmarked)	5.00 to 6.00
CCCCCC[C@H]1COc2cc([C@@H]3CC[C@](N)(COP(=O)(O)O)C3)ccc2C1	> 8.00
